METHOD DESCRIPTION: Cmax in CD-1 mouse plasma at 1 mg/kg, ip administered as single dose after 24 hrs by UPLC-MS/MS method
Type: ADME, organism-based
Set-up: dose 1 mg/kg, route intraperitoneal
REPORTED ENDPOINT: Cmax
Remember to quote the unit after the number.

**Query** What value of Cmax has been reported for the following compound? Cc1oc(-c2ccc(Cl)c(Cl)c2)nc1CN1CCC(C(=O)NCCCN2C[C@H](C)C[C@H](C)C2)CC1
**Result** 146 nM

----------
METHOD DESCRIPTION: Tmax in CD-1 mouse plasma at 10 mg/kg, ip administered as single dose after 24 hrs by UPLC-MS/MS method
Type: ADME, organism-based
REPORTED ENDPOINT: Tmax (min)
// units = min; emit number, no label

**Query** What value of Tmax has been reported for the following compound? Cc1oc(-c2ccc(Cl)c(Cl)c2)nc1CN1CCC(C(=O)NCCCN2C[C@H](C)C[C@H](C)C2)CC1
**Result** 4.98
